- Protocol notes: Pharmacokinetic study in rat plasma after oral administration of Flos Chrysanthemi extract (UPLC-MS/MS)
- Type: in vivo, Sprague-Dawley rats
- Particulars: male, Sprague-Dawley, rat; rats, oral Flos Chrysanthemi extract 10 g/kg, plasma, n = 6; read-out: Ke (converted)
- Experimental: Six male Sprague-Dawley rats (250 ± 5 g) were purchased from Huafukang Bioscience Co., Inc. (Beijing, China). The rats were adapted to the facility for a week. Before the experiments, rats were fasted for 12 h, although drinking water was readily accessible. Flos Chrysanthemi extract was dissolved in CMC-Na aqueous solution and orally administered to the animals once at 10 g/kg. […] Plasma samples from rats orally administered with Flos Chrysanthemi extract (10.0 g/kg) were analysed with UPLC-MS/MS. […]
Metric name: k el (s⁻¹)

O=C(O)[C@H]1O[C@@H](Oc2cc(O)c3c(=O)cc(-c4ccc(O)c(O)c4)oc3c2)[C@H](O)[C@@H](O)[C@@H]1O [Luteolin 7-O-glucuronide] | 3.33e-05

(1) O=C(/C=C/c1ccc(O)c(O)c1)O[C@@H]1C[C@](O)(C(=O)O)C[C@@H](O)[C@H]1O
(2) O=C(/C=C/c1ccc(O)c(O)c1)O[C@H]1[C@H](O)C[C@](O)(C(=O)O)C[C@H]1O
Ask | Lab note: check whether 1 or 2 shows the higher recorded k el. Field: selected label. Fill in the label of the entry you choose.
Reply | 1
(1: 0.00112 s⁻¹, 2: 3.33e-05 s⁻¹)
